tgt: IRAK4 (Homo sapiens (Human), UniProt Q9NWZ3)
method: IRAK4 Biochemical HTRF Kinase Assay
measurement conditions: Table 4; read-out: IRAK4 HTRF biochemical: IC50
Sequence (Q9NWZ3 whole entry, species assumed): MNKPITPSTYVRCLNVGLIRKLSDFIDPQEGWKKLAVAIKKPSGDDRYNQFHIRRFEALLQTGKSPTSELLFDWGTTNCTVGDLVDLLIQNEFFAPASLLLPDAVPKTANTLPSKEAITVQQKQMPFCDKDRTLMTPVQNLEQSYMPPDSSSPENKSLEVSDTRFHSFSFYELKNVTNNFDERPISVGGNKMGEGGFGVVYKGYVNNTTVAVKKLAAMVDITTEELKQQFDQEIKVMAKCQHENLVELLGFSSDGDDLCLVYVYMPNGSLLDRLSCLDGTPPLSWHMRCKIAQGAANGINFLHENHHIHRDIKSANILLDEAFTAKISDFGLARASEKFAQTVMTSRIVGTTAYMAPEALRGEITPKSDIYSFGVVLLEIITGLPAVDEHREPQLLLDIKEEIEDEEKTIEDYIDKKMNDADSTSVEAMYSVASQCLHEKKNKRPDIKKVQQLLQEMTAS
measured property: IC50 (nM)
Answers are plain numbers, in nM.

Reference set (8 entries):
CNc1cc(-c2ccc3cc(C#N)cnn23)ncc1-c1nnc([C@H]2CC[C@H](NC(=O)CCOCCC(=O)N[C@H](C(=O)N3C[C@H](O)C[C@H]3C(=O)N[C@@H](C)c3ccc(-c4scnc4C)cc3)C(C)(C)C)CC2)s1 [Example 61] : 3.98
CC(C)Nc1cc(-c2ccc3cc(C#N)cnn23)ncc1-c1nnc(N2CCN(C(=O)CCOCCOCCOCCNc3cccc4c3C(=O)N(C3CCC(=O)NC3=O)C4=O)CC2)s1 (stereo not shown) [Example 11] : 1.3
Cc1ncsc1-c1ccc(CNC(=O)[C@@H]2C[C@@H](O)CN2C(=O)[C@@H](NC(=O)C2(F)CC2)C(C)(C)C)c(OCCOCCOCCOCCC(=O)N2CCN(c3nnc(-c4cnc(-c5ccc6cc(C#N)cnn56)cc4NC(C)C)s3)CC2)c1 [Example 49] : 4.6
CC(C)Nc1cc(-c2ccc3cc(C#N)cnn23)ncc1-c1nnc(N2CCC(NC(=O)C3CCN(Cc4ccc5c(c4)C(=O)N(C4CCC(=O)NC4=O)C5=O)CC3)CC2)s1 (stereo not shown) [Example 30] : 0.9
Cc1ncsc1-c1ccc([C@H](C)NC(=O)[C@@H]2C[C@@H](O)CN2C(=O)[C@@H](NC(=O)CCCCC(=O)N2CCN(c3nnc(-c4cnc(-c5ccc6cc(C#N)cnn56)cc4NC(C)C)s3)CC2)C(C)(C)C)cc1 [Example 39] : 5
N#Cc1cnn2c(-c3cc(NC4CCOCC4)c(-c4nnc(C56CCC(NC(=O)CCOCCOCCNc7cccc8c7C(=O)N(C7CCC(=O)NC7=O)C8=O)(CC5)CC6)s4)cn3)ccc2c1 (stereo not shown) [Example 1] : 1.8
CC(C)Nc1cc(-c2ccc3cc(C#N)cnn23)ncc1-c1nnc(N2CCC(NC(=O)C3CCN(c4ccc5c(c4)C(=O)N(C4CCC(=O)NC4=O)C5=O)CC3)CC2)s1 (stereo not shown) [Example 25] : 7.8
CC(C)Nc1cc(-c2ccc3cc(C#N)cnn23)ncc1-c1nnc(N2CCN(C(=O)C3CCN(CC4CCN(c5ccc6c(=O)n(C7CCC(=O)NC7=O)ccc6c5)CC4)CC3)CC2)s1 (stereo not shown) [Example 21] : 0.5

Please state, for each entry, its recorded IC50.
1. CC(C)Nc1cc(-c2ccc3cc(C#N)cnn23)ncc1-c1nnc(N2CCN(C(=O)CN3CCC4(CC3)CN(c3ccc5c(c3)C(=O)N(C3CCC(=O)NC3=O)C5=O)C4)CC2)s1 (stereo not shown) [Example 15]
2. CNc1cc(-c2ccc3cc(C#N)cnn23)ncc1-c1nnc([C@H]2CC[C@H](NC(=O)CCOCCOc3cc(-c4scnc4C)ccc3CNC(=O)[C@@H]3C[C@@H](O)CN3C(=O)[C@@H](NC(=O)C3(F)CC3)C(C)(C)C)CC2)s1 [Example 58]

[A]
1: 1; 2: 5.26

---

Kindly supply the reported Dmax values for the records listed here.
tgt: IRAK4 (Homo sapiens (Human))
method: IRAK4 Degradation HiBiT Assay
measurement conditions: Jurkat, read-out: Cellular IRAK4 HiBiT: Dmax, Table 5; multiple runs; HiBiT-tagged Jurkat cells, 4 hrs
Sequence (Q9NWZ3 whole entry): as the sequence (Q9NWZ3 whole entry, species assumed) above
Answers are plain numbers, in %.

Examples with answers:
CC(C)Nc1cc(-c2ccc3cc(C#N)cnn23)ncc1-c1nnc(N2CCN(C(=O)C3CCN(C(=O)CNc4cccc5c4C(=O)N(C4CCC(=O)NC4=O)C5=O)CC3)CC2)s1 (stereo not drawn) : 69
Cc1ncsc1-c1ccc(CNC(=O)[C@@H]2C[C@@H](O)CN2C(=O)[C@@H](NC(=O)C2(F)CC2)C(C)(C)C)c(OCCCCCCCC(=O)N2CCN(c3nnc(-c4cnc(-c5ccc6cc(C#N)cnn56)cc4NC(C)C)s3)CC2)c1 : 67

[Q] Quick one: Dmax of CNc1cc(-c2ccc3cc(C#N)cnn23)ncc1-c1nnc([C@H]2CC[C@H](NC(=O)C3CN(C4CCN(c5ccc6c(c5)C(=O)N(C5CCC(=O)NC5=O)C6=O)CC4)C3)CC2)s1 (stereo partly drawn) ?
[A] 116

---

tgt: IRAK4 (Homo sapiens (Human), UniProt Q9NWZ3)
method: IRAK4 Degradation HiBiT Assay
measurement conditions: read-out: Cellular IRAK4 HiBiT: DC50; Table 4; HiBiT-tagged Jurkat cells, 4 hrs
The label TRUE is reserved for DC50 strictly under 90 nM; FALSE covers values equal to or above it.

Worked cases, answers included:
CC(C)Nc1cc(-c2ccc3cc(C#N)cnn23)ncc1-c1nnc(N2CCN(Cc3ccc4c(c3)C(=O)N(C3CCC(=O)NC3=O)C4=O)CC2)s1 (stereo not shown) [Example 20] : FALSE
CC(C)Nc1cc(-c2ccc3cc(C#N)cnn23)ncc1-c1nnc(N2CCN(C(=O)CCOCCNc3ccc4c(c3)C(=O)N(C3CCC(=O)NC3=O)C4=O)CC2)s1 (stereo not shown) [Example 10] : TRUE
Cc1ncsc1-c1ccc(CNC(=O)[C@@H]2C[C@@H](O)CN2C(=O)C(NC(=O)[C@H]2CC[C@H](CN3CCN(c4nnc(-c5cnc(-c6ccc7cc(C#N)cnn67)cc5NC(C)C)s4)CC3)CC2)C(C)(C)C)cc1 (stereo partly shown) [Example 46] : FALSE
CC(C)Nc1cc(-c2ccc3cc(C#N)cnn23)ncc1-c1nnc(N2CCC(NC(=O)C3CCN(Cc4ccc5c(c4)C(=O)N(C4CCC(=O)NC4=O)C5=O)CC3)CC2)s1 (stereo not shown) [Example 30] : TRUE

[Q] For CC(C)Nc1cc(-c2ccc3cc(C#N)cnn23)ncc1-c1nnc(N2CCN(C(=O)C3CCN(c4ccc5c(c4)C(=O)N(C4CCC(=O)NC4=O)C5=O)CC3)CC2)s1 (stereo not shown) [Example 23] , is the recorded DC50 below the cut-off of 90 nM?
[A] FALSE

[Q] Quick check: DC50 of CNc1cc(-c2ccc3cc(C#N)cnn23)ncc1-c1nnc([C@H]2CC[C@H](NC(=O)CCOCCC(=O)N[C@H](C(=O)N3C[C@H](O)C[C@H]3C(=O)N[C@@H](C)c3ccc(-c4scnc4C)cc3)C(C)(C)C)CC2)s1 [Example 61] under 90 nM?
[A] FALSE

[Q] Is DC50 strictly under 90 nM for the entry Cc1ncsc1-c1ccc(CNC(=O)[C@@H]2C[C@@H](O)CN2C(=O)[C@@H](NC(=O)C2(F)CC2)C(C)(C)C)c(OCCOCCOCCOCCC(=O)N2CCN(c3nnc(-c4cnc(-c5ccc6cc(C#N)cnn56)cc4NC(C)C)s3)CC2)c1 [Example 49] ?
[A] FALSE

---

tgt: IRAK4 (Homo sapiens (Human), UniProt Q9NWZ3)
method: IRAK4 Degradation HiBiT Assay
measurement conditions: read-out: Cellular IRAK4 HiBiT: DC50; Table 5; multiple runs; HiBiT-tagged Jurkat cells, 4 hrs
# strict inequality: DC50 < 70 nM yields rule met, everything else yields rule not met

Example results:
CNc1cc(-c2ccc3cc(C#N)cnn23)ncc1-c1nnc(C23CCC(NC(=O)CC(C)(C)C(=O)N[C@H](C(=O)N4C[C@H](O)C[C@H]4C(=O)N[C@@H](C)c4ccc(-c5scnc5C)cc4)C(C)(C)C)(CC2)CC3)s1 [Example 155] : rule not met
CNc1cc(-c2ccc3cc(C#N)cnn23)ncc1-c1nnc(N2CC3(CCN(C(=O)C[C@H](NC(=O)[C@@H]4C[C@@H](O)CN4C(=O)[C@@H](NC(=O)C4(F)CC4)C(C)(C)C)c4ccc(-c5scnc5C)cc4)CC3)C2)s1 [Example 178] : rule met
Cc1ncsc1-c1ccc(CNC(=O)[C@@H]2C[C@@H](O)CN2C(=O)[C@@H](NC(=O)C2(F)CC2)C(C)(C)C)c(OCC(=O)N2CCC(C(=O)N3CCN(c4nnc(-c5cnc(-c6ccc7cc(C#N)cnn67)cc5NC(C)C)s4)CC3)CC2)c1 [Example 80] : rule not met
CNc1cc(-c2ccc3cc(C#N)cnn23)ncc1-c1nnc(N2CCN(CCC3CCN(c4ccc5c(c4)C(=O)N(C4CCC(=O)NC4=O)C5=O)CC3)CC2)s1 (stereo not shown) [Example 187] : rule not met
Cc1ncsc1-c1ccc(CNC(=O)[C@@H]2C[C@@H](O)CN2C(=O)[C@@H](NC(=O)C2(F)CC2)C(C)(C)C)c(OCCCCCC(=O)N2CCN(c3nnc(-c4cnc(-c5ccc6cc(C#N)cnn56)cc4NC(C)C)s3)CC2)c1 [Example 42] : rule not met
CNc1cc(-c2ccc3cc(C#N)cnn23)ncc1-c1nnc([C@H]2CC[C@H](NC(=O)C3CN(C4CCN(c5ccc6c(c5)C(=O)N(C5CCC(=O)NC5=O)C6=O)CC4)C3)CC2)s1 (stereo partly shown) [Example 138] : rule met
CNc1cc(-c2ccc3cc(C#N)cnn23)ncc1-c1nnc([C@H]2CC[C@@H](NC(=O)CCCCCCCNc3ccc4c(c3)C(=O)N(C3CCC(=O)NC3=O)C4=O)CC2)s1 (stereo partly shown) [Example 112] : rule not met
CNc1cc(-c2ccc3cc(C#N)cnn23)ncc1-c1nnc(N2CCN(C[C@H]3CCN(c4ccc5c(c4)n(C)c(=O)n5C4CCC(=O)NC4=O)C3)CC2)s1 (stereo partly shown) [Example 91] : rule not met

[Q] Determine if CNc1cc(-c2ccc3cc(C#N)cnn23)ncc1-c1nnc(N2CC3CCC(C2)N3C2CCN(C(=O)c3ccc4c(c3)C(=O)N(C3CCC(=O)NC3=O)C4)CC2)s1 (stereo not shown) [Example 162] shows DC50 strictly lower than 70 nM.
[A] rule met

[Q] Is DC50 strictly under 70 nM for the entry CC(C)Nc1cc(-c2ccc3cc(C#N)cnn23)ncc1-c1nnc(N2CCN(C(=O)C3CCN(c4ccc5c(c4)C(=O)N(C4CCC(=O)NC4=O)C5=O)CC3)CC2)s1 (stereo not shown) [Example 23] ?
[A] rule met
